Tested on: MDA-MB-468
CONDITION: 72 h
Property: EC50, CellTiter-Glo; scope: individual compounds
Only the number, expressed in nM, is required.

Sample COc1cc2ncnc(Nc3ccc(F)c(Cl)c3)c2cc1NC(=O)/C=C/CN1CCCCC1 — what was its EC50, CellTiter-Glo?
179

Sample Cc1ccc(-n2nc(C(C)(C)C)cc2NC(=O)Nc2ccc(OCCN3CCOCC3)c3ccccc23)cc1 — what was its EC50, CellTiter-Glo?
937

Sample O=C(CCCCCCC(=O)Nc1ccc([C@H]2O[C@@H](CSc3nc(-c4ccccc4)c(-c4ccccc4)o3)C[C@@H](c3ccc(CO)cc3)O2)cc1)NO — what was its EC50, CellTiter-Glo?
1730

----------
Property: drug sensitivity score; scope: individual compounds
Tested on: MDA-MB-453
ASSAY_COMMENT: drug sensitivity score (DSS), CellTiter-Glo (DSS (AUC-based score)); higher = stronger drug effect (viability inhibition or cytotoxicity); extreme values may be limits of the assay
CONDITION: incubation time: 72 h
Kindly provide the number alone.

# annotated cases, reported drug sensitivity score shown
COMPOUND	drug sensitivity score
CNCc1ccc(-c2[nH]c3cc(F)cc4c3c2CCNC4=O)cc1 [Rucaparib]	0
CS(=O)(=O)c1ccc(C2=C(c3ccccc3)C(=O)OC2)cc1 [Rofecoxib]	0
O=P1(NCCCl)OCCCN1CCCl (stereo not given) [Ifosfamide]	0
COc1cc2ncnc(Nc3ccc(F)c(Cl)c3)c2cc1NC(=O)/C=C/CN1CCCCC1 [Dacomitinib]	5.43

Okay, next one:
Value wanted: drug sensitivity score (MDA-MB-453) of entry CN[C@@H]1C[C@H]2O[C@@](C)([C@@H]1OC)n1c3ccccc3c3c4c(c5c6ccccc6n2c5c31)C(=O)N[C@H]4O [UCN-01]
17.3

----------
Test system: CAL-148
ASSAY_COMMENT: normalised response (% of control), CellTiter-Glo; higher = more viable cells (100 = DMSO, 0 = benzethonium chloride kill control)
CONDITION: incubation time: 72 h
ENDPOINT_NAME: normalised response

COMPOUND	normalised response
CCC1=C[C@@H]2CN(C1)Cc1c([nH]c3ccccc13)[C@@](C(=O)OC)(c1cc3c(cc1OC)N(C)[C@H]1[C@@](O)(C(=O)OC)[C@H](OC(C)=O)[C@]4(CC)C=CCN5CC[C@]31[C@@H]54)C2 [Vinorelbine] (1 nM)	108%
N[C@@H](CSC(c1ccccc1)(c1ccccc1)c1ccccc1)C(=O)O [S-trityl-L-cysteine] (40 nM)	97.5%
CN[C@@H]1C[C@H]2O[C@@](C)([C@@H]1OC)n1c3ccccc3c3c4c(c5c6ccccc6n2c5c31)C(=O)N[C@H]4O [UCN-01] (10 nM)	108%

Okay, next one:
Sample Cn1c(Nc2ccc(C(F)(F)F)cc2)nc2cc(Oc3ccnc(-c4ncc(C(F)(F)F)[nH]4)c3)ccc21 [RAF265] (100 nM) — what was its normalised response?
97.1%

----------
System: MDA-MB-468
ASSAY_COMMENT: drug sensitivity score (DSS), CellTiter-Glo (DSS (AUC-based score)); higher = stronger drug effect (viability inhibition or cytotoxicity); extreme values may be limits of the assay
CONDITION: incubation time: 72 h
ENDPOINT_NAME: drug sensitivity score
Kindly provide the number alone.

# annotated cases, reported drug sensitivity score shown
COMPOUND	drug sensitivity score
NC(=O)Nc1cc(-c2cccc(F)c2)sc1C(=O)N[C@H]1CCCNC1	1.93
CC(C)Cn1cnc2c(N)nc3ccccc3c21	0
CCC1(c2ccc(N)cc2)CCC(=O)NC1=O (stereo not given) [Aminoglutethimide]	0
CS(=O)(=O)c1ccc(C2=C(c3ccccc3)C(=O)OC2)cc1	0

Okay, next one:
Value wanted: drug sensitivity score (MDA-MB-468) of entry CCCCCCCCCCCCCCCCCCOP(=O)([O-])OC1CC[N+](C)(C)CC1
0

----------
Tested on: MDA-MB-231
ASSAY_COMMENT: normalised response (% of control), CellTiter-Glo; higher = more viable cells (100 = DMSO, 0 = benzethonium chloride kill control)
CONDITION: incubation time: 72 h
ENDPOINT_NAME: normalised response (%)
Only the number, expressed in %, is required.

Sample C[C@@H](Oc1cc(-c2cnn(C3CCNCC3)c2)cnc1N)c1c(Cl)ccc(F)c1Cl [Crizotinib] (1000 nM) — what was its normalised response?
83.9

Sample C=C(c1ccc(C(=O)O)cc1)c1cc2c(cc1C)C(C)(C)CCC2(C)C [Bexarotene] (10000 nM) — what was its normalised response?
105

Sample N#CCNC(=O)c1ccc(-c2ccnc(Nc3ccc(N4CCOCC4)cc3)n2)cc1 [Momelotinib] (10000 nM) — what was its normalised response?
46.8

Sample N[C@@H](CSC(c1ccccc1)(c1ccccc1)c1ccccc1)C(=O)O [S-trityl-L-cysteine] (40000 nM) — what was its normalised response?
91.1

----------
Tested on: MDA-MB-436
ASSAY_COMMENT: normalised response (% of control), CellTiter-Glo; higher = more viable cells (100 = DMSO, 0 = benzethonium chloride kill control)
CONDITION: incubation time: 72 h
ENDPOINT_NAME: normalised response (%)
Only the number, expressed in %, is required.

Value wanted: normalised response (MDA-MB-436) of entry Cn1c(Nc2ccc(C(F)(F)F)cc2)nc2cc(Oc3ccnc(-c4ncc(C(F)(F)F)[nH]4)c3)ccc21 [RAF265] (100 nM)
89.8

Value wanted: normalised response (MDA-MB-436) of entry COc1cc2nccc(Oc3ccc(NC(=O)C4(C(=O)Nc5ccc(F)cc5)CC4)cc3)c2cc1OC [Cabozantinib] (0.1 nM)
83.3

----------
System: HDQ-P1
ASSAY_COMMENT: normalised viability (% of control), CellTiter-Blue; higher = more viable cells (about 100 = DMSO control)
CONDITION: 10 nM; incubation time: 72 h
We label by threshold. Values of normalised viability strictly beneath 90% are Criterion met. Values of 90% and up are Criterion not met.

is_below(normalised viability, 90%) for CCC1=C[C@@H]2CN(C1)Cc1c([nH]c3ccccc13)[C@@](C(=O)OC)(c1cc3c(cc1OC)N(C)[C@H]1[C@@](O)(C(=O)OC)[C@H](OC(C)=O)[C@]4(CC)C=CCN5CC[C@]31[C@@H]54)C2 ?
Criterion not met

is_below(normalised viability, 90%) for C[C@@H](Oc1cc(-c2cnn(C3CCNCC3)c2)cnc1N)c1c(Cl)ccc(F)c1Cl ?
Criterion met

is_below(normalised viability, 90%) for CC1(C)NC(=O)N(c2ccc([N+](=O)[O-])c(C(F)(F)F)c2)C1=O [Nilutamide] ?
Criterion not met

is_below(normalised viability, 90%) for CCC1(c2ccc(N)cc2)CCC(=O)NC1=O (stereo unspecified) [Aminoglutethimide] ?
Criterion not met

is_below(normalised viability, 90%) for C[C@]12CC[C@@H]3c4ccc(O)cc4C[C@@H](CCCCCCCCC[S+]([O-])CCCC(F)(F)C(F)(F)F)[C@H]3[C@@H]1CC[C@@H]2O (stereo partly specified) ?
Criterion not met

is_below(normalised viability, 90%) for Cc1ccc(-n2nc(C(C)(C)C)cc2NC(=O)Nc2ccc(OCCN3CCOCC3)c3ccccc23)cc1 ?
Criterion not met

----------
Test system: BT-549
ASSAY_COMMENT: normalised viability (% of control), CellTiter-Blue; higher = more viable cells (about 100 = DMSO control)
CONDITION: 10 nM; incubation time: 72 h
Property: normalised viability; scope: individual compounds
Only the number, expressed in %, is required.

# annotated cases, reported normalised viability shown
COMPOUND	normalised viability (%)
CNCc1ccc(-c2[nH]c3cc(F)cc4c3c2CCNC4=O)cc1 [Rucaparib]	100
N.N.[Cl][Pt][Cl] [Cisplatin]	87.5

Sample O=C1CCC(N2C(=O)c3ccccc3C2=O)C(=O)N1 (centres undefined) [Thalidomide] — what was its normalised viability?
76.7

Sample Cc1ccc(-n2nc(C(C)(C)C)cc2NC(=O)Nc2ccc(OCCN3CCOCC3)c3ccccc23)cc1 [Doramapimod] — what was its normalised viability?
98.1

----------
System: HDQ-P1
ASSAY_COMMENT: normalised response (% of control), CellTox Green; higher = less cell death (100 = DMSO, 0 = benzethonium chloride kill control)
CONDITION: incubation time: 72 h
Property: normalised response; scope: individual compounds
Only the number, expressed in %, is required.

# annotated cases, reported normalised response shown
COMPOUND	EXPERIMENTAL_SYSTEM	normalised response (%)
CC(=O)Nc1ccc(C(=O)Nc2ccccc2N)cc1 [Tacedinaline] (1000 nM)	HDQ-P1	104
O=P1(NCCCl)OCCCN1CCCl (stereo not drawn) [Ifosfamide] (1000 nM)	HDQ-P1	67.6
CN[C@@H]1C[C@H]2O[C@@](C)([C@@H]1OC)n1c3ccccc3c3c4c(c5c6ccccc6n2c5c31)C(=O)N[C@H]4O [UCN-01] (100 nM)	HDQ-P1	50.5

Sample O=C(O)c1ccc(-c2c[nH]c3ncc(-c4ccccc4)cc23)cc1C1CCCC1 (10000 nM) — what was its normalised response?
91

Sample C#Cc1cccc(Nc2ncnc3cc(OCCOC)c(OCCOC)cc23)c1 [Erlotinib] (1000 nM) — what was its normalised response?
100

Sample C[C@@H](Oc1cc(-c2cnn(C3CCNCC3)c2)cnc1N)c1c(Cl)ccc(F)c1Cl [Crizotinib] (1000 nM) — what was its normalised response?
72.7

Sample CO[C@H]1/C=C\C=C(/C)C(=O)NC2=CC(=O)C(NCCN(C)C)=C(C[C@@H](C)C[C@H](OC)[C@H](O)[C@@H](C)/C=C(\C)[C@@H]1OC(N)=O)C2=O [Alvespimycin] (10 nM) — what was its normalised response?
90.8

Sample O=P1(NCCCl)OCCCN1CCCl (stereo not drawn) [Ifosfamide] (100 nM) — what was its normalised response?
88
